Can you tell me melting point for the items I'm about to list?
// units = °C; emit number, no label

Enquiry: Please look up its melting point: `CCNC(=O)NS(=O)(=O)c1cc(CCNC(=O)/C=C/c2ccc(OC)cc2OC)ccc1OC`
Return: 96

Enquiry: So what's the measured melting point for this one? `CNC(=S)NS(=O)(=O)c1cc(CCNC(=O)/C=C/c2ccccc2)ccc1OCCOC`
Return: 150

Enquiry: Could you tell me which melting point is on file for `CNC(=S)NS(=O)(=O)c1cc(CCNC(=O)/C=C/c2ccc(C)cc2C)ccc1OCCOC` ?
Return: 116

Enquiry: // lookup melting point for `CNC(=O)NS(=O)(=O)c1cc(CCNC(=O)/C=C/c2ccccc2)ccc1OCCOC`
Return: 65

Enquiry: Please look up its melting point: `CCNC(=S)NS(=O)(=O)c1cc(CCNC(=O)/C=C/c2ccc(OC)cc2OC)ccc1OC`
Return: 90

Enquiry: Any idea what melting point was measured for `CNC(=O)NS(=O)(=O)c1cc(CCNC(=O)/C=C/c2ccc(OC)cc2OC)ccc1OC` ?
Return: 210

Enquiry: Which melting point is reported for this compound? `CNC(=S)NS(=O)(=O)c1cc(CCNC(=O)/C=C/c2cc(C(C)(C)C)ccc2OC)ccc1OCCOC`
Return: 73

---

Test system: chloroform-induced ventricular fibrillation in the mouse
Method Summary: Chloroform-induced ventricular fibrillation in the mouse (action in the case of vagal dysfunction)
Format: in vivo
Experimental Conditions: 3 mg/kg i.p., chloroform anesthesia 30 min later; n = 10; untreated control 100%
Test Readout: Fibrillation ratio (in %)
Supply the numeric figure in %, leaving out any unit text.

Enquiry: # lookup: Fibrillation ratio (in %) of CCNC(=S)NS(=O)(=O)c1cc(CCNC(=O)/C=C/c2ccc(OC)cc2OC)ccc1OCCOC [Example 9]
Return: 63

Enquiry: If you can, please state the reported Fibrillation ratio (in %) value of CNC(=O)NS(=O)(=O)c1cc(CCNC(=O)/C=C/c2ccc(OC)cc2OC)ccc1OCCOC [Example 8] .
Return: 60

Enquiry: What does the data say about its Fibrillation ratio (in %)? Entry: CNC(=S)NS(=O)(=O)c1cc(CCNC(=O)/C=C/c2ccc(C)cc2C)ccc1OC [Example 5]
Return: 70

Enquiry: Entry CNC(=S)NS(=O)(=O)c1cc(CCNC(=O)/C=C/c2ccccc2)ccc1OC [Example 12] has what Fibrillation ratio (in %)?
Return: 63

Enquiry: If you can, please state the reported Fibrillation ratio (in %) value of CNC(=S)NS(=O)(=O)c1cc(CCNC(=O)/C=C/c2ccc(OC)cc2OC)ccc1OC [Example 1] .
Return: 60

---

Test Readout: melting point

Enquiry: Look at this molecule and give its reported melting point. CNC(=S)NS(=O)(=O)c1cc(CCNC(=O)/C=C/c2cc(Cl)ccc2OC)ccc1OC [Example 21]
Return: 188 to 190 °C

Enquiry: What does the record list as melting point for C=CCOc1ccc(CCNC(=O)/C=C/c2ccc(OC)cc2OC)cc1S(=O)(=O)NC(=S)NC [Example 23] ?
Return: 171 to 175 °C

Enquiry: Fill blank: measured melting point of the molecule CNC(=O)NS(=O)(=O)c1cc(CCNC(=O)/C=C/c2ccc(C)cc2C)ccc1OC [Example 6] is ____.
Return: 227 to 229 °C

Enquiry: What value of melting point has been reported for the following molecule? CNC(=S)NS(=O)(=O)c1cc(CCNC(=O)/C=C/c2ccc(Cl)cc2Cl)ccc1OCCOC [Example 24]
Return: 76 to 78 °C
